tested_target: T1, recombinant cyno Tie2 extracellular domain (cynomolgus monkey, UniProt Q02763 23-748 (human entry))
T1 construct: also called Recombinant cyno Tie2 ECD; cy Tie2
T1 chain: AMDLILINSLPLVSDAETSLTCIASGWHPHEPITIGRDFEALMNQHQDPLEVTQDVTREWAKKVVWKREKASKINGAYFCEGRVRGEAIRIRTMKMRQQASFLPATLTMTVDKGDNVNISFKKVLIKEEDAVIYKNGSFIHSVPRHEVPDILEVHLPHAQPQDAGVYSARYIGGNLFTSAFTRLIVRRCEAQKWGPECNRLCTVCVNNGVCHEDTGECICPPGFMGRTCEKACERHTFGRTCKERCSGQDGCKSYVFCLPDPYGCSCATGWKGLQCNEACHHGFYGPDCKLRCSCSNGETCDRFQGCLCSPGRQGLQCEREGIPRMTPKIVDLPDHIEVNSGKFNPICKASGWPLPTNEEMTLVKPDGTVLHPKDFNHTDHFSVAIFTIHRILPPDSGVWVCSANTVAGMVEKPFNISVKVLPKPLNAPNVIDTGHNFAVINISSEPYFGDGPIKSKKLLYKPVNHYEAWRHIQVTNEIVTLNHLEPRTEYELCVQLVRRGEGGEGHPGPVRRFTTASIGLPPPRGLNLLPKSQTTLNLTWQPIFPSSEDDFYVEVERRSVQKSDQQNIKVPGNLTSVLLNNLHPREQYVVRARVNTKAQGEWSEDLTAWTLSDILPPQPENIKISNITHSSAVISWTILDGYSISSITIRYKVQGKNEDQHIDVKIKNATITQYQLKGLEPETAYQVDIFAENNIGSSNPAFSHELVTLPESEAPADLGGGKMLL
assay_overview: SPR, IgG captured, 37C
value_kind: Normalized Binding Signal, 300 nM

Fill in the blank: the reported Normalized Binding Signal, 300 nM of Tie2.1.M100cY (antibody, IgG1, name in Kabat numbering, V domains shown, hIgG1) VH: EVQLVESGGGLVQPGGSLRLSCAASGFTFSNTDISWVRQAPGKGLEWVGRISPSDGNTYYADSVKGRFTISADTSKNTAYLQMNSLRAEDTAVYYCARRTRWASWAYDYWGQGTLVTVSS VL: DIQMTQSPSSLSASVGDRVTITCRASQDVSTAVAWYQQKPGKAPKLLIYSASFLYSGVPSRFSGSGSGTDFTLTISSLQPEDFATYYCQQSYTTPPTFGQGTKVEIKR is ____.
0.13

Then there is this binder:
Fill in the blank: the reported Normalized Binding Signal, 300 nM of Tie2.1.M100cV (antibody, IgG1, name in Kabat numbering, V domains shown, hIgG1) VH: EVQLVESGGGLVQPGGSLRLSCAASGFTFSNTDISWVRQAPGKGLEWVGRISPSDGNTYYADSVKGRFTISADTSKNTAYLQMNSLRAEDTAVYYCARRTRWASWAVDYWGQGTLVTVSS VL: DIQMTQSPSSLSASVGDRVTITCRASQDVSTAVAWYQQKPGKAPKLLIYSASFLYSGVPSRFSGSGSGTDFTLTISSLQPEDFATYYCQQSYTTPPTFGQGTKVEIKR is ____.
0.04
